Cited source: PubChem BioAssay (NCI)

Listed compounds paired with reported TGI
tested on: CCRF-CEM leukemia; experiment: NCI tumour cell line growth inhibition, 48 h
Property Measured: TGI

[
  {
    "Compound": "Cc1cc(C(=O)NC(C)(C)C)cc(C#Cc2ccc3c4c(oc3c2)C(C)(C)c2cc(NS(C)(=O)=O)ccc2C4=O)n1",
    "Val": "> 100 µM"
  },
  {
    "Compound": "COC(=O)c1nn(-c2ccccc2)c(=O)cc1N=[N+]=[N-]",
    "Val": "> 100 µM"
  },
  {
    "Compound": "CC1CCCP(=O)(c2ccccc2)CC1 (stereo unspecified)",
    "Val": "> 100 µM"
  },
  {
    "Compound": "CCOC(=O)C1N(S(=O)(=O)c2ccc(C)cc2)CCC12c1ccccc1NC2c1ccc(OC)c(OC)c1 (stereo unspecified)",
    "Val": "> 100 µM"
  },
  {
    "Compound": "Cn1c(=O)c2c3ccccc3c(C(=O)c3ccccc3)n2c2ccccc21",
    "Val": "> 31.6 µM"
  },
  {
    "Compound": "CNc1cc(OCc2ccccc2)c(OC)cc1C(=O)N1CCC[C@H]1CO",
    "Val": "> 100 µM"
  }
]

###

This document collects GI50 values reported for NCI-H460 lung.

[
  {
    "Compound": "O=C(COc1cccc(/C=C2/Oc3ccccc3C2=O)c1)Nc1nccs1",
    "GI50": "31.6 µM"
  },
  {
    "Compound": "CN1C(=O)/C(=C/c2c(Cl)[nH]c3ccccc23)c2ccccc21",
    "GI50": "46.7 µM"
  },
  {
    "Compound": "COc1cc(-c2cc(/C=C/C(=O)c3ccc(N)cc3)[nH]n2)cc(OC)c1OC",
    "GI50": "1.8 µM"
  },
  {
    "Compound": "CSCCC(NC(=O)CNC(=O)C(CC(=O)O)NC(=O)C(NC(=O)C(NC(=O)C(NC(=O)CNC(=O)C(CCC(N)=O)NC(=O)C(CCSC)NC(=O)C(CC(=O)O)NC(=O)C(C)NC(=O)C(C)NC(=O)C(NC(=O)C(CO)NC(=O)C(N)CC(C)C)C(C)O)C(C)C)C(C)C)C(C)O)C(=O)NC(C)C(=O)NC(CO)C(=O)NCC(=O)NC(CC(C)C)C(=O)NC(CC(=O)O)C(=O)NC(CCCCN)C(=O)NC(CC(=O)O)C(=O)NC(Cc1ccc(O)cc1)C(=O)NC(CC(C)C)C(=O)NC(CCCCN)C(=O)N1CCCC1C(=O)NC(CC(=O)O)C(=O)NC(CC(=O)O)C(=O)O (centres undefined)",
    "GI50": "> 82.5 µM"
  },
  {
    "Compound": "CC(C)OP(=O)(OC(C)C)C([CH2][Sn]([CH3])([CH3])[Cl])P(=O)(OC(C)C)OC(C)C",
    "GI50": "16 µM"
  },
  {
    "Compound": "Cc1cc(C(=O)NC(C)(C)C)cc(C#Cc2ccc3c4c(oc3c2)C(C)(C)c2cc(NS(C)(=O)=O)ccc2C4=O)n1",
    "GI50": "2.31 µM"
  },
  {
    "Compound": "C[C@H](O)CNc1cc(-c2[nH]c3cccnc3c2-c2ccc(F)cc2)ccn1",
    "GI50": "8.43 µM"
  },
  {
    "Compound": "COc1ccc2c(c1)CCC1C2CCC2(C)C3=CC(O)CCC3CC12 (centres undefined)",
    "GI50": "19.4 µM"
  },
  {
    "Compound": "Brc1ccc2[nH]cc([C@H]3CN[C@@H](c4c[nH]c5ccc(Br)cc45)CN3)c2c1",
    "GI50": "3.04 µM"
  }
]

###

Listed compounds paired with reported TGI
test system: SK-MEL-28 melanoma; experiment: NCI tumour cell line growth inhibition, 48 h

[
  {
    "Compound": "CCCCN(C(=O)c1ccccc1)C1CCC(=O)c2[nH]c3ccccc3c21 (stereo unspecified)",
    "TGI": "> 100 µM"
  },
  {
    "Compound": "O=c1c2c3c(sc2nc(CN2CCNCC2)n1-c1ccccc1)CCCC3",
    "TGI": "> 100 µM"
  },
  {
    "Compound": "N#Cc1c(-c2ccc(Cl)cc2)cc(-c2ccc(Nc3ccnc4cc(C(F)(F)F)ccc34)cc2)nc1N",
    "TGI": "48.2 µM"
  },
  {
    "Compound": "CC1CCN(CCC(=O)CC(c2ccccc2)c2c(O)c3ccccc3oc2=O)CC1 (stereo unspecified)",
    "TGI": "> 100 µM"
  },
  {
    "Compound": "Nc1nc(=S)c2c(ncn2CC(O)CO)[nH]1 (stereo unspecified)",
    "TGI": "> 100 µM"
  },
  {
    "Compound": "CCOC(=O)C1C(=O)CC(O)(c2ccccc2)C(C(=O)OCC)C1c1ccc(N(C)C)cc1 (stereo unspecified)",
    "TGI": "> 100 µM"
  }
]

###

Listed compounds paired with reported GI50
tested on: HCT-15 colon; assay: NCI tumour cell line growth inhibition, 48 h

[
  {
    "Compound": "O=C(COc1cccc(/C=C2/Oc3ccccc3C2=O)c1)Nc1nccs1",
    "GI50": "28.3 µM"
  },
  {
    "Compound": "CS(=O)(=O)Nc1ccc(Nc2c3ccccc3nc3cc(N)ccc23)cc1",
    "GI50": "11 µM"
  },
  {
    "Compound": "COc1ccc2c(c1)OCC1c3cc(O)ccc3OC21 (stereo not drawn)",
    "GI50": "40.6 µM"
  }
]

###

Listed compounds paired with reported TGI
test system: A498 renal; assay: NCI tumour cell line growth inhibition, 48 h
Property Measured: TGI (µM)

[
  {
    "Compound": "N/N=C(/Cc1ccccc1)NNC(N)=S",
    "Tested Target": "A498 renal",
    "Property Measured": "TGI",
    "Qualifier Symbol": ">",
    "Val": 100
  },
  {
    "Compound": "CCOc1ccc(N=NC2C(=O)N(C(=O)CC(=O)Nc3ccc(C)cc3)N=C2C)cc1 (centres undefined)",
    "Tested Target": "A498 renal",
    "Property Measured": "TGI",
    "Qualifier Symbol": "=",
    "Val": 52.5
  },
  {
    "Compound": "NC(=O)c1c2c(n3ccccc13)C(=O)c1ccccc1C2=O",
    "Tested Target": "A498 renal",
    "Property Measured": "TGI",
    "Qualifier Symbol": ">",
    "Val": 100
  },
  {
    "Compound": "CCCc1cc2c(cc1O)CC[C@@H]1[C@@H]2CC[C@]2(C)[C@@H](O)CC[C@@H]12",
    "Tested Target": "A498 renal",
    "Property Measured": "TGI",
    "Qualifier Symbol": "=",
    "Val": 32.3
  },
  {
    "Compound": "Nc1ccc2c(c1)S(=O)(=O)c1cc(O)ccc1O2",
    "Tested Target": "A498 renal",
    "Property Measured": "TGI",
    "Qualifier Symbol": ">",
    "Val": 100
  },
  {
    "Compound": "CCOCc1cc(=O)c2c(O)cc3c(c2o1)CCC(C)(C)O3",
    "Tested Target": "A498 renal",
    "Property Measured": "TGI",
    "Qualifier Symbol": ">",
    "Val": 100
  },
  {
    "Compound": "CCCCN(C(=O)c1ccccc1)C1CCC(=O)c2[nH]c3ccccc3c21 (centres undefined)",
    "Tested Target": "A498 renal",
    "Property Measured": "TGI",
    "Qualifier Symbol": ">",
    "Val": 100
  },
  {
    "Compound": "COc1ccc2c(c1)CCC1C2CCC2(C)C3=CC(O)CCC3CC12 (centres undefined)",
    "Tested Target": "A498 renal",
    "Property Measured": "TGI",
    "Qualifier Symbol": "=",
    "Val": 35.4
  },
  {
    "Compound": "CCOC(=O)c1nc2cc(C(F)(F)F)ccc2nc1Nc1ccc(OC)c(OC)c1",
    "Tested Target": "A498 renal",
    "Property Measured": "TGI",
    "Qualifier Symbol": ">",
    "Val": 100
  },
  {
    "Compound": "CC(NNC(=S)N1CCCCCC1)c1cccnn1 (centres undefined)",
    "Tested Target": "A498 renal",
    "Property Measured": "TGI",
    "Qualifier Symbol": "=",
    "Val": 9.82
  },
  {
    "Compound": "CC1=C(C(=O)NNC(=O)c2ccccc2)CC(C(=O)NNC(=O)c2ccccc2)=C(C)N1",
    "Tested Target": "A498 renal",
    "Property Measured": "TGI",
    "Qualifier Symbol": ">",
    "Val": 100
  },
  {
    "Compound": "Cc1cc2cc3c(Cl)c(CCCl)c(C)nc3cc2c(Cl)c1CCCl",
    "Tested Target": "A498 renal",
    "Property Measured": "TGI",
    "Qualifier Symbol": "=",
    "Val": 48.4
  },
  {
    "Compound": "NCCCCCCn1c2c(c3ccccc3c1=O)C(=O)c1ccccc1-2",
    "Tested Target": "A498 renal",
    "Property Measured": "TGI",
    "Qualifier Symbol": "=",
    "Val": 2.97
  },
  {
    "Compound": "Cc1ccc2nc(-n3c(/C=C/c4ccccc4O)nc4ccccc4c3=O)sc2c1",
    "Tested Target": "A498 renal",
    "Property Measured": "TGI",
    "Qualifier Symbol": ">",
    "Val": 100
  }
]
